Where do the numbers come from? From ChEMBL document CHEMBL5604063.

target: UniProt P29990; type: functional, Thailand/16681/1984
Sequence (P29990 1346-1475 limits assumed): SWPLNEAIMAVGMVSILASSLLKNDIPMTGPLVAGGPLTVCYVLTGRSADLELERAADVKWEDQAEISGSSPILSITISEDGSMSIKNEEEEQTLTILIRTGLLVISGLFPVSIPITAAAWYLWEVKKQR
Sequence (P29990 1476-2093 limits assumed): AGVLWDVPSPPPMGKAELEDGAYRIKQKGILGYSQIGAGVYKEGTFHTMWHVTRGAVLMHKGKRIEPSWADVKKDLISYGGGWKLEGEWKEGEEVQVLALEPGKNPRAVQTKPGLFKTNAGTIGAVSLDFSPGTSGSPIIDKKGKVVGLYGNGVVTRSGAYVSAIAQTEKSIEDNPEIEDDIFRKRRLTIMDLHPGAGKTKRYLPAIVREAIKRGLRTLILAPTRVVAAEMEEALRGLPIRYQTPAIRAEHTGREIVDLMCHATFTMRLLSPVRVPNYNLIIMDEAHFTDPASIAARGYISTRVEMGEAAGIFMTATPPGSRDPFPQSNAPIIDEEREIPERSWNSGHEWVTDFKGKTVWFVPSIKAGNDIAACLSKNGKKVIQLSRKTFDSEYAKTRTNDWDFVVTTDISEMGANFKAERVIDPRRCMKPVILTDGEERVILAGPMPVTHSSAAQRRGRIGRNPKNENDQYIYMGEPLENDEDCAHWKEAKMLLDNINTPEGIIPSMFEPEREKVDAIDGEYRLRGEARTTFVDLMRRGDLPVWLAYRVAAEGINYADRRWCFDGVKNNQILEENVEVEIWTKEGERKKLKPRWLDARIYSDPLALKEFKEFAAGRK
pIC50: −log10 of the molar value.
molecules and their reported pIC50

As a guide, the following entries are already answered.
In [3]: df
Out[3]:
                              sample_smiles  experimental_target  endpoint_name  observed
0   NCc1cccc(NC(=O)c2nn(-c3ccccc3F)cc2Br)c1       UniProt P29990          pIC50    < 4.00
1  Cc1c(C(=O)Nc2ccc3c(c2F)CCN(C)C3=O)cc(C2CC2)n1C       UniProt P29990          pIC50    < 4.00
2           Cn1ncc(C(=O)Nc2cc(CCCN)ccn2)c1O       UniProt P29990          pIC50    < 4.00

Exercise: Lookup: pIC50 / UniProt P29990 / "CCOc1cccc(-c2cccc(NC(=O)c3cc(C4CC4)n(C)c3C)n2)c1"
Key: < 4.00

Exercise: // repeat for "Cc1cc(C(=O)Nc2cccc(CN)c2)cc(NCC(F)(F)F)n1" and report
Key: < 4.00
